I'd appreciate it if you could supply melting point values for the items below.

# annotated cases, reported melting point shown
CNC1=Nc2ccc(C#C[Si](C)(C)C)cc2C(c2ccccc2)=NC1 210 to 211 °C
C[Si](C)(C)C#Cc1ccc2c(c1)C(c1ccccc1)=NCc1c(C(=O)OCC(F)(F)F)ncn1-2 107 to 110 °C
O=C(OCC(F)(F)F)c1ncn2c1CN=C(c1ccccc1)c1cc(Br)ccc1-2 202 to 204 °C
C[Si](C)(C)C#Cc1ccc2c(c1)C(c1ccccn1)=NCC(=O)N2 242 to 243 °C
CN1C(=O)CN=C(c2ccccn2)c2cc(C#C[Si](C)(C)C)ccc21 194 to 195 °C

Below is a list of molecules. For each, state its recorded melting point.
1. O=C(OCC(Cl)(Cl)Cl)c1ncn2c1CN=C(c1ccccc1)c1cc(Br)ccc1-2
2. C#Cc1ccc2c(c1)C(c1ccccn1)=NCC(=O)N2C
3. CC(C)(C)OC(=O)c1ncn2c1CN=C(c1ccccc1)c1cc(Br)ccc1-2
4. CCOC(=O)c1ncn2c1CN=C(c1ccccc1)c1cc(Cl)ccc1-2
5. CNC1=Nc2ccc(Br)cc2C(c2ccccc2)=NC1
6. C#Cc1ccc2c(c1)C(c1ccccc1)=NCc1c(C(=O)OCC(F)(F)F)ncn1-2

["113 to 116 °C", "190 to 191 °C", "222 to 223 °C", "174 to 175 °C", "234 to 235 °C", "188 to 190 °C"]

Fill in: melting point of "CCOC(=O)c1ncn2c1CN=C(c1ccccn1)c1cc(C#C[Si](C)(C)C)ccc1-2" is ___
205 to 206 °C

----------
target: GABAA/α5 (α5β3γ2 GABAA receptors) (Homo sapiens, UniProt P18507+P31644); construct: expressed in transfected cells; test: Competitive binding assay, [3H]flunitrazepam; conditions: αxβ3γ2, [3H]flunitrazepam competition; read-out: Binding Affinity at GABAA/α5
measured_endpoint: Ki (nM)
Answers are plain numbers, in nM.

// query Ki value for entry "C[Si](C)(C)C#Cc1ccc2c(c1)C(c1ccccc1F)=NCc1c(C(=O)OCC(F)(F)F)ncn1-2"
133

----------
test system: minimal motor deficit (ataxia, abnormal gait); assay: Toxicity (TOX), minimal motor deficit, rats; assay type: in vivo; settings: Rat PO, 50 mg/kg, 2.0 h
Kindly state Tox, animals toxic/tested for each of the entries shown.

compound	Tox, animals toxic/tested
C#Cc1ccc2c(c1)C(c1ccccc1)=N[C@H](C)c1nnc(C)n1-2 [SH-TR-CH3 (146)]	1/4

I need Tox, animals toxic/tested for every entry listed below, if you could help.
1. C#Cc1ccc2c(c1)C(c1ccccc1Cl)=NCc1nnc(C)n1-2 [XLi-JY-DMH (23)]
2. C#Cc1ccc2c(c1)C(c1ccccc1F)=NCc1c(C(=O)OCC)ncn1-2 [JY-XHe-053 (15)]
3. C#Cc1ccc2c(c1)C(c1ccccn1)=NCc1c(C(=O)OCC)ncn1-2 [Hz166 (106)]
4. C#Cc1ccc2c(c1)C(c1ccccc1F)=NC(C)c1c(C(=O)OCC)ncn1-2 (single isomer, unassigned) [SH-053-2′F-S-CH3]
5. C#Cc1ccc2c(c1)C(c1ccccc1)=N[C@@H](C)c1nnc(C)n1-2 [SH-TS-CH3 (143)]

1. 0/4
2. 0/4
3. 0/4
4. 0/4
5. 0/4

----------
Provide the reported TOX (Rotorod Test), animals toxic/tested of each item.
Test system: minimal muscular or neurological impairment
Test: Toxicity (TOX), rotorod procedure, mice
Assay type: in vivo
Conditions: Mice IP, 100 mg/kg, 0.5 hr
Procedure: The benzodiazepine derivative compounds selective for GABAa receptor subunits were tested for the ability to suppress seizures in several standard rat and mouse models of epilepsy. […] To assess a compound's undesirable side effects (toxicity), animals are monitored for overt signs of impaired neurological or muscular function. […]

compound	TOX (Rotorod Test), animals toxic/tested
C#Cc1ccc2c(c1)C(c1ccccc1)=N[C@H](C)c1nnc(C)n1-2 [SH-TR-CH3 (146)]	1/8
C#Cc1ccc2c(c1)C(c1ccccc1)=N[C@@H](C)c1nnc(C)n1-2 [SH-TS-CH3 (143)]	8/8^14
C#Cc1ccc2c(c1)C(c1ccccc1F)=NCc1c(C(=O)OCC)ncn1-2 [JY-XHe-053 (15)]	6/8

Continue with the compound presented below.
# TOX (Rotorod Test), animals toxic/tested lookup, item C#Cc1ccc2c(c1)C(c1ccccc1Cl)=NCc1nnc(C)n1-2 [XLi-JY-DMH (23)]
6/8

----------
tested on: minimal muscular or neurological impairment; test: Toxicity (TOX), rotorod procedure, mice; assay type: in vivo; details: Mice, 50 mg/kg PO (Mice IP), 0.5 hr
Exercise: for every item that follows, state its recorded TOX (Rotorod Test), animals toxic/tested.

Examples with answers:
C#Cc1ccc2c(c1)C(c1ccccn1)=NCc1c(C(=O)OCC)ncn1-2 0/4
C#Cc1ccc2c(c1)C(c1ccccc1Cl)=NCc1nnc(C)n1-2 0/4

Hi team, please reply with TOX (Rotorod Test), animals toxic/tested for each item in this list.
1. C#Cc1ccc2c(c1)C(c1ccccc1)=NCc1c(C(=O)OCC)ncn1-2
2. C#Cc1ccc2c(c1)C(c1ccccc1F)=NCc1c(C(=O)OCC)ncn1-2

1. 2/4
2. 0/4

----------
target: GABAA/α2 (α2β3γ2 GABAA receptors) (Homo sapiens, UniProt P18507+P47869); construct: expressed in transfected cells; experiment: Competitive binding assay, [3H]flunitrazepam; conditions: Binding Affinity at GABAA/α2, αxβ3γ2, [3H]flunitrazepam competition
pKi: −log10 of the molar value.
Could you label it Yes if measured pKi is 7 or higher, and No otherwise?

Examples from the recorded data:
compound	classification
C#Cc1ccc2c(c1)C(c1ccccc1)=NC(C)c1c(C(=O)OCC)ncn1-2 (single isomer, unassigned) [SH-053-S-CH3]	No
C#Cc1ccc2c(c1)C(c1ccccc1)=NCc1c(C(=O)OCC(F)(F)F)ncn1-2	No
C#Cc1ccc2c(c1)C(c1ccccc1F)=NCc1c(C(=O)OCC)ncn1-2	Yes

I'd appreciate it if you could say whether "C#Cc1ccc2c(c1)C(c1ccccc1)=N[C@@H](C)c1nnc(C)n1-2" has pKi at least equal to 7.
Yes

Entry C#Cc1ccc2c(c1)C(c1ccccc1)=NC(C)c1c(C(=O)OCC)ncn1-2 (single isomer, unassigned) [SH-053-R-CH3] please
No

Entry to check: "O=C(OCC(F)(F)F)c1ncn2c1CN=C(c1ccccc1F)c1cc(Br)ccc1-2"
Yes

Now the same for "C#Cc1ccc2c(c1)C(c1ccccc1)=N[C@H](C)c1nnc(C)n1-2"
No

Input "C[Si](C)(C)C#Cc1ccc2c(c1)C(c1ccccc1F)=NCc1c(C(=O)OCC(F)(F)F)ncn1-2"
Yes

----------
tested on: Metrazol-induced clonic seizures; assay: Subcutaneous Metrazol test (scMet), mice; assay type: in vivo; conditions: Mice, 50 mg/kg PO (Mice IP), 0.5 hr
measured_endpoint: scMet, animals protected/tested

Recorded scMet, animals protected/tested, per entry:
C#Cc1ccc2c(c1)C(c1ccccn1)=NCc1c(C(=O)OCC)ncn1-2 4/4
C#Cc1ccc2c(c1)C(c1ccccc1)=NCc1c(C(=O)OCC)ncn1-2 1/4
C#Cc1ccc2c(c1)C(c1ccccc1Cl)=NCc1nnc(C)n1-2 3/4

Please report the recorded scMet, animals protected/tested for "C#Cc1ccc2c(c1)C(c1ccccc1F)=NCc1c(C(=O)OCC)ncn1-2" .
3/4

----------
target: GABAA/α4 (α4β3γ2 GABAA receptors) (Homo sapiens, UniProt P18507+P48169); construct: expressed in transfected cells; experiment: Competitive binding assay, [3H]flunitrazepam
Kindly supply the reported Ki values for the records listed here.

Solved entries (count: 4):
compound	Ki
C#Cc1ccc2c(c1)C(c1ccccc1F)=NC(C)c1c(C(=O)OCC)ncn1-2 (single isomer, unassigned) [SH-053-2′F-R-CH3]	> 5 µM
C#Cc1ccc2c(c1)C(c1ccccc1)=NC(C)c1c(C(=O)OCC)ncn1-2 (single isomer, unassigned) [SH-053-S-CH3]	> 5 µM
CN1C(=O)CN=C(c2ccccc2)c2cc(Cl)ccc21 [Diazepam, reference compound]	> 1 µM
C#Cc1ccc2c(c1)C(c1ccccc1F)=NC(C)c1c(C(=O)OCC)ncn1-2 (single isomer, unassigned) [SH-053-2′F-S-CH3]	> 5 µM

Now take the following compound into account.
For GABAA/α4 (α4β3γ2 GABAA receptors) (Homo sapiens, UniProt P18507+P48169), provide Ki of C#Cc1ccc2c(c1)C(c1ccccc1)=NCC(=O)N2C [QH-II-066] please.
> 1 µM

----------
system: MES-induced seizures; test: Maximal electroshock test (MES), mice; assay type: in vivo; settings: Mice IP, 100 mg/kg, 0.5 hr
Task for the reader: assign each of the following compounds its reported MES, animals protected/tested.

Record MES, animals protected/tested for all entries; do not skip any.
1. C#Cc1ccc2c(c1)C(c1ccccc1F)=NCc1c(C(=O)OCC)ncn1-2
2. C#Cc1ccc2c(c1)C(c1cccs1)=NCc1c(C(=O)OCC)ncn1-2
3. C#Cc1ccc2c(c1)C(c1ccccc1)=NCc1c(C(=O)OCC)ncn1-2

1: 0/3; 2: 0/3; 3: 0/3

Record MES, animals protected/tested for all entries; do not skip any.
1. C#Cc1ccc2c(c1)C(c1ccccc1)=N[C@@H](C)c1nnc(C)n1-2
2. C#Cc1ccc2c(c1)C(c1ccccc1F)=NC(C)c1c(C(=O)OCC)ncn1-2 (single isomer, unassigned)

["3/3", "0/3"]

For each entry beneath this line, provide reported MES, animals protected/tested.
1. C#Cc1ccc2c(c1)C(c1ccccc1)=N[C@H](C)c1nnc(C)n1-2
2. C#Cc1ccc2c(c1)C(c1ccccc1Cl)=NCc1nnc(C)n1-2
3. C#Cc1ccc2c(c1)C(c1ccccn1)=NCc1c(C(=O)OCC)ncn1-2

1: 0/3; 2: 3/3; 3: 0/3
